# study_target: mouse melanocortin-1 receptor (mouse, UniProt Q01727 1-315)
# Sequence (Q01727 whole entry): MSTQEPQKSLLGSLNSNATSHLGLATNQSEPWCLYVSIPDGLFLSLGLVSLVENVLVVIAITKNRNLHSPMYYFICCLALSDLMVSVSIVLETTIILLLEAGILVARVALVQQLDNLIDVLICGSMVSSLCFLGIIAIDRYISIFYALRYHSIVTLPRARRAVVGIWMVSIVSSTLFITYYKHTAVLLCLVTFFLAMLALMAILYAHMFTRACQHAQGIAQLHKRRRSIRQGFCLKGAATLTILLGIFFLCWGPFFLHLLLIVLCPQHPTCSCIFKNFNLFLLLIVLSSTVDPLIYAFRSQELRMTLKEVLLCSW
# assay_procedure: cell-based or functional assay
Square brackets hold non-standard residues; d marks the D form. hPhe = N[C@@H](CCc1ccccc1)C(=O)O; Nle = CCCC[C@H](N)C(=O)O; Dap = NC[C@H](N)C(=O)O
metric: agonist EC50 (cAMP AlphaScreen)

// solved cases for agonist EC50 (cAMP AlphaScreen) follow
binder="cyclo(PRF[hPhe][Dap]S[Nle][dP]) (SMILES CCCC[C@@H]1NC(=O)[C@H](CO)NC(=O)[C@H](CN)NC(=O)[C@H](CCc2ccccc2)NC(=O)[C@H](Cc2ccccc2)NC(=O)[C@H](CCCNC(=N)N)NC(=O)[C@@H]2CCCN2C(=O)[C@H]2CCCN2C1=O) [c[Pro-Arg-Phe-hPhe-Dap-Ser-Nle-DPro]]" metric="agonist EC50 (cAMP AlphaScreen)" result="> 100 µM"
binder="cyclo(PRFFRS[Nle][dP]) (SMILES CCCC[C@@H]1NC(=O)[C@H](CO)NC(=O)[C@H](CCCNC(=N)N)NC(=O)[C@H](Cc2ccccc2)NC(=O)[C@H](Cc2ccccc2)NC(=O)[C@H](CCCNC(=N)N)NC(=O)[C@@H]2CCCN2C(=O)[C@H]2CCCN2C1=O) [c[Pro-Arg-Phe-Phe-Arg-Ser-Nle-DPro]]" metric="agonist EC50 (cAMP AlphaScreen)" result="> 100 µM"

Moving on to another binder below.
-- ask Look up agonist EC50 (cAMP AlphaScreen): cyclo(PRFFRA[Nle][dP]) (SMILES CCCC[C@@H]1NC(=O)[C@H](C)NC(=O)[C@H](CCCNC(=N)N)NC(=O)[C@H](Cc2ccccc2)NC(=O)[C@H](Cc2ccccc2)NC(=O)[C@H](CCCNC(=N)N)NC(=O)[C@@H]2CCCN2C(=O)[C@H]2CCCN2C1=O) [c[Pro-Arg-Phe-Phe-Arg-Ala-Nle-DPro]]
-- reply > 100 µM

All figures here come from patent US20200115416A1.
